For each of the variants below, state its protein stability index.
B1: ZNF193 (parent)
chain: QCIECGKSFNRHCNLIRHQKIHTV

# Variants of: B1
# ASSAY METHOD TEXT: protein stability index of a GFP-peptide fusion (GPS, HEK-293T) (PSI 1-6); higher = more stable;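 also: lentivirally expressed fusions sorted by FACS into six bins by GFP to DsRed ratio, PSI derived from sequencing read proportions per bin multiplied by bin number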
# EXPERIMENTAL SETUP: c terminus: a fixed tail appended

### Prompt Give the measured protein stability index for S8N
### Response 3.47

### Prompt Give the measured protein stability index for Q19N
### Response 2.81

### Prompt Give the measured protein stability index for E4Q
### Response 3.43
